target: 3-oxo-5-alpha-steroid 4-dehydrogenase 2 (Homo sapiens, UniProt P31213); assay: In vitro inhibitory activity against 5-alpha reductase was determined in human prostatic tissue expressed as apparent inhibition constant; details: read-out: Ki app
Sequence (P31213 whole entry): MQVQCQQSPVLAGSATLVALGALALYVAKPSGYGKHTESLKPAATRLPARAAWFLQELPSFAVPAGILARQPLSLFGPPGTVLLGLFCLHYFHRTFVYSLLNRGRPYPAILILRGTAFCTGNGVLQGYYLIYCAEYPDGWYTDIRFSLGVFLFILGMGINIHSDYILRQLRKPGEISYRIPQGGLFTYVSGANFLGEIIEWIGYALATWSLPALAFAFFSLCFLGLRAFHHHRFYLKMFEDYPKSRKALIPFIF
REPORTED PROPERTY: pKi
One number for each entry, as −log10 of the molar value.

Report measured pKi; entry is CC(C)N(C(=O)[C@H]1CCC2C3CC[C@H]4C=C(C(=O)O)CC[C@]4(C)C3CC[C@@]21C)C(C)C (stereo partly specified)
7.52

----------
Hi there, I'd appreciate the recorded Ki for every entry that follows.
target: 3-oxo-5-alpha-steroid 4-dehydrogenase 2 (Homo sapiens, UniProt P31213); experiment: In vitro inhibition of Steroid 5-alpha-reductase in human prostatic tissue.; conditions: read-out: Ki app
Enter the number, and then the unit.

Please review the entries below; each comes with its answer.
1. CC(C)(C)NC(=O)[C@H]1CC[C@H]2[C@@H]3CC[C@H]4C=C(C(=O)O)CC[C@]4(C)[C@H]3CC[C@]12C :: 110 nM
2. CC(C)N(C(=O)[C@H]1CCC2C3CCC4=C[C@@H](C(=O)O)CC[C@]4(C)C3CC[C@@]21C)C(C)C (stereo partly drawn) :: 200 nM
3. CC(C)N(C(=O)[C@H]1CCC2C3CC=C4C=C(C(=O)O)C=C[C@]4(C)C3CC[C@@]21C)C(C)C (stereo partly drawn) :: 60 nM
4. CC(C)N(C(=O)[C@H]1CCC2C3CCC4=C[C@@](O)(C(=O)O)CC[C@]4(C)C3CC[C@@]21C)C(C)C (stereo partly drawn) :: 320 nM
5. C[C@]12CCC(C(=O)O)=CC1=CCC1C2CC[C@@]2(C)C1CC[C@@H]2C#N (stereo partly drawn) :: 790 nM
6. CC(C)N(C(=O)[C@H]1CCC2C3CC(F)=C4C=C(C(=O)O)CC[C@]4(C)C3CC[C@@]21C)C(C)C (stereo partly drawn) :: 32 nM
7. CC(C)N(C(=O)[C@H]1CCC2C3CC=C4C=C(C(=O)O)CC[C@]4(C)C3C=C[C@@]21C)C(C)C (stereo partly drawn) :: 7 nM

Under 3-oxo-5-alpha-steroid 4-dehydrogenase 2 (Homo sapiens, UniProt P31213): report Ki of CC(C)N(C(=O)[C@H]1CCC2C3CCC4=C[C@](O)(C(=O)O)CC[C@]4(C)C3CC[C@@]21C)C(C)C (stereo partly drawn) .
220 nM

----------
molecular target: UniProtKB P31213; assay: In vitro inhibitory activity against Steroid 5-alpha-reductase was determined in human prostatic tissue expressed as apparent inhibition constant; Range is 7-18; settings: read-out: Ki app
REPORTED PROPERTY: Ki (nM)
Numbers only, in nM.

Give the observed Ki of CC(C)N(C(=O)[C@H]1CCC2C3CC=C4C=C(C(=O)O)CC[C@]4(C)C3CC[C@@]21C)C(C)C (stereo partly specified) for UniProtKB P31213.
7

----------
molecular target: 3-oxo-5-alpha-steroid 4-dehydrogenase 2 (Homo sapiens, UniProt P31213); experiment: In vitro inhibition of Steroid 5-alpha-reductase in human prostatic tissue.; details: read-out: Ki app
REPORTED PROPERTY: Ki (nM)
Answers are plain numbers, in nM.

Recorded Ki, per entry:
1) CC(C)N(C(=O)[C@H]1CCC2C3CC[C@H]4CC(C(=O)O)=CC[C@]4(C)C3CC[C@@]21C)C(C)C (stereo partly drawn) :: 85
2) CC(C)N(C(=O)[C@H]1CCC2C3CCC4=CC(C(=O)O)=CC[C@]4(C)C3CC[C@@]21C)C(C)C (stereo partly drawn) :: 52

# context switch: different compound, same Ki
Find the measured Ki of CC(C)N(C(=O)[C@H]1CC[C@H]2[C@@H]3CC[C@H]4CC(C(=O)O)CC[C@]4(C)[C@H]3CC[C@]12C)C(C)C (stereo partly drawn) and report it.
2200

Data provenance: ChEMBL document CHEMBL1124725
